- SUBJECT_OF_TEST: PIM2 (Homo sapiens, UniProt Q9P1W9)
- Sequence (Q9P1W9 whole entry): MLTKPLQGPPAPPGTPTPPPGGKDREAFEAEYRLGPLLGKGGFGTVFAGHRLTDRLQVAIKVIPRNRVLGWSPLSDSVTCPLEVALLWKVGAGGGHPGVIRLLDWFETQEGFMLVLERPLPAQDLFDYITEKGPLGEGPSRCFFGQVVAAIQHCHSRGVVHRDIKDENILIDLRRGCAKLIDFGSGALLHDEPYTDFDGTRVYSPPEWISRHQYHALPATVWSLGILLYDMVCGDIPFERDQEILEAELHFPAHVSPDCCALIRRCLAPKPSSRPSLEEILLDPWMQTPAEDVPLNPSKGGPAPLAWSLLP
- ASSAY_PROTOCOL: KinaseGlo Pim2 ATP depletion assay
- Type: biochemical
- Description: KinaseGlo Pim2 ATP Depletion Assay The activity of PIM2 is measured using a luciferase-luciferin based ATP detection reagent to quantify ATP depletion resulting from kinase-catalyzed phosphoryl transfer to a peptide substrate. Compounds to be tested are dissolved in 100% DMSO and directly distributed into white 384-well plates at 0.5 piper well. […] The stopped reaction is incubated for 10 minutes and the remaining ATP detected via luminescence on the Victor2 (Perkin Elmer).
pIC50: −log10 of the molar value.
Given measured pIC50, output yes if it is greater than or equal to 7 and no if not.

>>> category("CC[C@]1(O)[C@H](O)C[C@H](c2ccncc2NC(=O)c2nc(-c3ccnnc3)ccc2N)O[C@@H]1C")
"no"
>>> category("Nc1ncc(-c2ccccc2)nc1C(=O)Nc1cnccc1[C@H]1C[C@@H](O)[C@@]2(O)CCC[C@H]2O1")
"yes"
>>> category("O=C(Nc1cnccc1[C@H]1CCCCO1)c1ccc(F)c(-c2c(F)cccc2F)n1")
"no"
>>> category("C[C@H]1O[C@@H](c2ccncc2NC(=O)c2ccc(F)c(-c3c(F)cccc3F)n2)[C@H](F)[C@@H](O)[C@]1(C)O (stereo in doubt)")
"no"
>>> category("CC[C@H]1O[C@@H](c2ccncc2NC(=O)c2cccn(-c3ccccc3)c2=O)C[C@@H](O)[C@@H]1O")
"no"
>>> category("N#C[C@H]1OC(c2ccncc2NC(=O)c2nc(-c3c(F)cccc3F)c(F)cc2N)=C[C@@H](O)[C@@H]1O")
"yes"
>>> category("CC[C@H]1O[C@@H](c2ccncc2NC(=O)c2nc(-c3nccs3)ccc2N)C[C@@H](O)[C@@H]1O [Example 140]")
"yes"
>>> category("O=C(Nc1cnccc1[C@H]1OCC[C@@H](CO)O1)c1ccc(F)c(-c2c(F)cccc2F)n1")
"no"

----------
- SUBJECT_OF_TEST: UniProt:Q86V86
- ASSAY_PROTOCOL: KinaseGlo Pim3 ATP depletion assay
- Type: biochemical
MEASURED_PROPERTY: IC50 (nM)

>>> observed("Nc1cnc(-c2c(F)cccc2F)nc1C(=O)Nc1cnccc1[C@@H]1C[C@H](O)[C@@H](O)[C@H](C2CC2)O1")
69.7
>>> observed("C[C@H]1O[C@@H](c2ccncc2NC(=O)c2csc(-c3c(F)cccc3F)n2)C[C@@H](O)[C@]1(C)O (stereo in doubt)")
88
>>> observed("O=C(Nc1cnccc1[C@]1(C(F)(F)F)C[C@H](O)CCO1)c1ccc(F)c(-c2c(F)cccc2F)n1")
110

----------
- System: KMS11 (human myeloma cell line)
- ASSAY_PROTOCOL: Cell proliferation assay (CellTiter-Glo), KMS11
- Assay type: cell-based
- CONDITION_SUMMARY: Homo sapiens, KMS-11; KMS11 cells, cell proliferation; read-out: KMS11-Luc EC50
pEC50: −log10 of the molar value.
The following molecules are listed with their measured pEC50 values.
MEASURED_PROPERTY: pEC50

>>> observed("C[C@H]1O[C@@H](c2ccncc2NC(=O)c2nn(Cc3ccccc3)cc2N)C[C@@H](O)[C@]1(C)O [Example 218]")
"< 5.00"
>>> observed("C[C@H]1O[C@@H](c2ccncc2NC(=O)c2ccc(F)c(-c3ccc(S(C)(=O)=O)cc3)n2)C[C@@H](N)[C@]1(C)O [Example 321]")
"< 5.00"
>>> observed("C[C@@H]1O[C@H](c2ccncc2NC(=O)c2csc(-c3c(F)cccc3F)n2)C[C@H](N)[C@@]1(C)O [Example 222]")
"< 5.00"

----------
- SUBJECT_OF_TEST: UniProtKB Q86V86
- ASSAY_PROTOCOL: KinaseGlo Pim3 ATP depletion assay
- Assay type: biochemical
Binarize IC50 at 3 nM; below is true, at or above is false.

>>> category("O=C(Nc1cnccc1[C@@H]1C[C@H](O)[C@]2(O)CCC[C@@H]2O1)c1c[nH]cc(-c2ccccc2)c1=O [Example 184]")
"false"
>>> category("CC[C@]1(O)[C@H](O)C[C@H](c2ccncc2NC(=O)c2nc(-c3ccccc3)cnc2N)O[C@@H]1C [Example 15]")
"true"
>>> category("N#C[C@H]1O[C@@H](c2ccncc2NC(=O)c2ccnc(-c3c(F)cccc3F)n2)C[C@@H](O)[C@@H]1O [Example 149]")
"false"
>>> category("Nc1cnc(-c2c(F)cccc2F)nc1C(=O)Nc1cnccc1[C@H]1C[C@@H](O)[C@H](O)[C@@H](CCl)O1 [Example 17]")
"false"
>>> category("O=C(Nc1cnccc1[C@H]1C[C@H](Cl)[C@H](O)[C@@H](CCl)O1)c1ccc(F)c(-c2c(F)cccc2F)n1 [Example 55]")
"false"
>>> category("CC[C@H]1O[C@@H](c2ccncc2NC(=O)c2nc(-c3c(F)cccc3F)c(F)cc2N)C[C@@H](O)[C@]1(C)O [Example 166]")
"true"
>>> category("CC[C@]1(O)[C@H](O)C[C@H](c2ccncc2NC(=O)c2nc(-c3c(F)cccc3F)ncc2N)O[C@@H]1C [Example 16]")
"true"
>>> category("C[C@H]1O[C@@H](c2ccncc2NC(=O)c2csc(-c3c(F)cccc3F)n2)[C@H](F)[C@@H](O)[C@]1(C)O (stereo in doubt) [Example 68]")
"false"
>>> category("O=C(Nc1cnccc1[C@H]1OCC[C@@H](CO)O1)c1ccc(F)c(-c2c(F)cccc2F)n1 [Example 103]")
"false"

----------
- SUBJECT_OF_TEST: PIM3 (Homo sapiens, UniProt Q86V86)
- ASSAY_PROTOCOL: KinaseGlo Pim3 ATP depletion assay
- Assay type: biochemical
MEASURED_PROPERTY: IC50 (nM)

>>> observed("C[C@@H]1O[C@H](c2ccncc2NC(=O)c2ccc(F)c(-c3c(F)cccc3F)n2)C[C@H](O)[C@@]1(C)O (stereo in doubt) [Example 112]")
2
>>> observed("Nc1cnc(-c2c(F)cccc2F)nc1C(=O)Nc1cnccc1[C@H]1C[C@@H](O)[C@H](O)[C@@H](C2CC2)O1 [Example 207]")
8.5
>>> observed("O=C(Nc1cnccc1[C@@H]1C[C@H](O)[C@@H](O)[C@H](C2CC2)O1)c1cccc(-c2c(F)cccc2F)n1 [Example 206]")
20.2
>>> observed("C=C1[C@H](O)C[C@H](c2ccncc2NC(=O)c2nc(-c3c(F)cccc3F)ncc2N)OC12CC2 [Example 8]")
149

----------
- SUBJECT_OF_TEST: GSK3β (Homo sapiens, UniProt P49841)
- Sequence (P49841 whole entry, species assumed): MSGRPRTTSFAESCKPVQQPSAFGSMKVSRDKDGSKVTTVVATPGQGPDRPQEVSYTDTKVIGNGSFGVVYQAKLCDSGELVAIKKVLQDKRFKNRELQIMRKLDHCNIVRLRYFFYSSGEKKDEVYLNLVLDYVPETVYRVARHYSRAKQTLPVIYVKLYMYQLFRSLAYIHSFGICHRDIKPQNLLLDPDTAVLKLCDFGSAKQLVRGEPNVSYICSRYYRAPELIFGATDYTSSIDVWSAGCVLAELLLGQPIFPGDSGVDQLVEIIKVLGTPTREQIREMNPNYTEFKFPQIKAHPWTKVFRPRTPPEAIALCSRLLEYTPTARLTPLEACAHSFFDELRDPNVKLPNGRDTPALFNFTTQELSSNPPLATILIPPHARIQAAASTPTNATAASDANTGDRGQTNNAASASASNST
- ASSAY_PROTOCOL: GSK3β ATP depletion assay
- Type: biochemical
- CONDITION_SUMMARY: read-out: GSK3b IC50
- Protocol: GSK3β ATP Depletion Assay The activity of GSK3β is measured using a luciferase-luciferin based ATP detection reagent to quantify ATP depletion resulting from kinase-catalyzed phosphoryl transfer to a peptide substrate. Compounds to be tested are dissolved in 100% DMSO and directly distributed into white 384-well plates at 0.5 μl per well. […] The stopped reaction is incubated for 10 minutes and the remaining ATP is detected via luminescence on the Victor2 (Perkin Elmer).
Below, each of the compounds is paired with its reported IC50 value.
MEASURED_PROPERTY: IC50

>>> observed("O=C(Nc1cnccc1[C@@H]1C[C@H](O)[C@]2(O)CCCC[C@@H]2O1)c1c[nH]cc(-c2ccccc2)c1=O")
"> 25000 nM"
>>> observed("Nc1ncc(-c2ccccc2)nc1C(=O)Nc1cnccc1[C@H]1C[C@@H](O)[C@@]2(O)CCCC[C@H]2O1")
"1.4 nM"
>>> observed("N#CC[C@H]1O[C@@H](c2ccncc2NC(=O)c2nc(-c3c(F)cccc3F)ncc2N)C[C@@H](O)[C@@H]1O [Example 153]")
"235 nM"
>>> observed("O=C(Nc1cnccc1[C@H]1C[C@@H](O)CC2(CC2)O1)c1csc(-c2c(F)cccc2F)n1")
"65 nM"
>>> observed("CC[C@H]1O[C@@H](c2ccncc2NC(=O)c2nc(-c3c(F)cccc3F)c(F)cc2N)C[C@@H](O)[C@]1(C)O")
"1680 nM"
>>> observed("C[C@H]1C[C@@H](N)C[C@@H](c2ccncc2NC(=O)c2csc(-c3c(F)cccc3F)n2)O1")
"421 nM"
>>> observed("N#CC[C@H]1O[C@@H](c2ccncc2NC(=O)c2ccc(C#N)c(-c3c(F)cccc3F)n2)C[C@@H](O)[C@@H]1O")
"9180 nM"
>>> observed("O=C(Nc1cnccc1C1=C[C@@H](O)[C@H](O)[C@@H](CO)O1)c1ccc(F)c(-c2c(F)cccc2F)n1")
"1450 nM"
>>> observed("O=C(Nc1cnccc1[C@@H]1C[C@H](O)CC2(CC2)O1)c1csc(-c2c(F)cccc2F)n1")
"27 nM"
>>> observed("CC[C@]1(O)[C@H](O)C[C@H](c2ccncc2NC(=O)c2nc(-c3ccccc3)cnc2N)O[C@@H]1C")
"1 nM"
>>> observed("C[C@H]1O[C@@H](c2ccncc2NC(=O)c2ccc(F)c(-c3c(F)cccc3F)n2)[C@H](F)C(=O)[C@]1(C)O")
"385 nM"
>>> observed("O=C(Nc1cnccc1[C@H]1C[C@@H](O)[C@@]2(O)CCC[C@H]2O1)c1ccnn(-c2ccccc2F)c1=O")
"383 nM"
>>> observed("O=C(Nc1cnccc1[C@H]1C[C@@H](O)[C@H](O)[C@@H](CO)O1)c1ccc(F)c(-c2c(F)cccc2F)n1")
"2800 nM"
>>> observed("C[C@H]1O[C@@H](c2ccncc2NC(=O)c2ccc(F)c(-c3c(F)cccc3F)n2)C[C@@H](O)[C@@H]1O")
"629 nM"
>>> observed("C[C@H]1O[C@@H](c2ccncc2NC(=O)c2cncc(-c3ccccc3)n2)C[C@@H](O)[C@]1(C)O")
"257 nM"

Sourced from patent US20130109682A1
